# Assay Details: soluble on expression in E. coli; label from the status in PepcDB or PDB records
Attribute Measured: soluble on expression in E. coli

1) MAHHHHHHMLHRIPAYRDPLLQVLSDALKRALDFYRREMSAGMSVEFECRLGTFSASKHTYAHPFPTHTLTPALLDGQSTTPFFFFAGVAQPSFIAAHETLKTIGASMPPRSSTVLSVRTVGKDRLEYAMNEACNSGHLLTIVEKERIFSHDVRCPGWGADFRVSVSREKTIDRETWNQAKWESFTPNISRLRQRKSVRIDPFLSVDMAMVRSFTDHSRFVRPWSPELQVPFISAPHVSFDVELEVNMPALHRVVKQTRLVESTLGRTALDLLTVLQFLAAKRE; not soluble
2) MSIIEDNKISFVIPTINEEKTIGSVIDGIHENFPNAEIILVDTNSTDKTKEIAKSKGATVIEEPRKGYGRAYQTGIPAAKGDIIVCMDGDGTYPTDIVKPLIEILILDKVDFISCDRITFRTSTNYTTLHYVGNMVLNLTIRILFKVRMVDSQSGMWIFRSELYKKMKNLGYGMSFSQNIKIEAVRHGVFIEIPIRYGVRITKPKLKTWHDGFHNLFALFIKRVSELEHHHHHH; soluble
3) MEVKALAHAKNDSVAVATDDLKEGEEIQVAFLDNNEKTKITTAEVIPLGHKISLKDIKKGENVIEYGEVIGAATKDIKRGEHVHIHNIKSLRW; not soluble
4) MPELPEVETVRRELEKRIVGQKIISIEATYPRMVLTGFEQLKKELTGKTIQGISRRGKYLIFEIGDDFRLISHLRMEGKYRLATLDAPREKHDHLTMKFADGQLIYADVRKFGTWELISTDQVLPYFLKKKIGPEPTYEDFDEKLFREKLRKSTKKIKPYLLEQTLVAGLGNIYVDEVLWLAKIHPEKETNQLIESSIHLLHDSIIEILQKAIKLGGSSIRTYSALGSTGKMQNELQVYGKTGEKCSRCGAEIQKIKVAGRGTHFCPVCQQK; soluble
5) MSLPLVTLNSVRFAGMATCVPKRVVSNLTDCKPQIRPERERLVRNIGIELRRLTQEWQCFSDLAFDAASKLIESLEWKLEEIDALIVVTQSPDYLAPATAIILQDRLGLPHTTLAFDVNLGCSGYPFGLHLLGSLISAGGIKKGLVLVGDSGAQLNDPIFSDAGTATAMEFCADAPPMYFDLNSDGSGHKAIILPVGGHREPVGIQHLVPFRENENDHWHRAIDLQLDGTAVLSFSTQRVPPAVEKLLEYANASKDEVDYFIFHQANRMINETIRKKLALPVEKVPSTLRDFGNTSGASLPVTMTARINKQLEEGSKRLVLSGFGIGLSWGTCLVDIQGAKFPDLIESEGHHHHHH; soluble

Need soluble on expression in E. coli of MRSVLQSEVSECGLASLAMVANAHGKHLTLSQLRQRFPSSLKGAKLTHLVHIAQQLGFSTRPLRLDMEDLGKLKLPCILHWDLNHFVVLAKVGTTKVTIYDPAIGKRKLSLNEVSKYFTGIALELTTTTE , thanks.
not soluble

Need soluble on expression in E. coli of MIVRGGGDLATGVIQKLWHVGFKILVLETECPLAIRRTVSVCDAIFQKEQRVEDLVAVRITSLKDCAKCWQQNKLPVFVDQTASAIQQLKPLIVIDAILAKKNLGTHRGMAPITIALGPGFSAPQDVDVVIETMRGHRLGRLYFEGTALPNTGIPGEIGGKSAERVVHAPASGQVTHLKNIGDLVLKGEALFLIDQVPVYSPLTGTLRGLISEKVTCYQGLKCADVDPRPVEKVDCLTISDKARALGGAVLEAIFMIGRRKNVLLEHHHHHH , thanks.
soluble

Need soluble on expression in E. coli of MARPIATHDNTFTKAYLQQHCGDLLSFDGQGDLSGWLDDVLTGAGRLNESMASNTKPVSPYLILTQLLTHDTLTVSAVQESLSRKRVALGEPMVSTRYARYVYATVVSASKSVQYHASKAGS , thanks.
not soluble

###

# Assay Details: soluble on expression in E. coli; label from the status in PepcDB or PDB records
Attribute Measured: soluble on expression in E. coli

1. MGSDKIHHHHHHMAAIGSYNITLLNRESIKENAAYPIADNVEVIALSGSLFEFYKKLKKQISSNNYDVVVVHNMGKLSLLCAFVPNIKKLVVLEHVSFISRPKKIQILSKFLYRNIDQVVTLTQNDKEQFDKFHSNVIVIPNFSPFSIASQPQNNGKQIVTIGRLTDQKNYIHLLQAWKKIYQSIPDWQLNIYGEGEQEEMLQDYIKQQSLKNVSLKGSTSNVKEVYEQSSFFVMSSKYEGLPMVLIEAQSFGLPIVSYNCPYGPSDVIRDSKNGFLVEDQNVDELAAAVLKVALSPQLLEQFSQSSLLNAKKYQPEQILKIWIEKVLEG; not soluble
2. MSATASVATRHDWSLAEVRALFEQPFNDLLFQAQTVHRAHFDPNRVQVSTLLSIKTGACPEDCKYCPQSGHYNTGLDKEKLMEVQKVLEAAAEAKAIGSTRFCMGAAWKHPSAKDMPYVLEMVKGVKKLGLETCMTLGRLTQEQTQALADAGLDYYNHNLDTSPEFYGNIITTRTYSERLQTLAYVREAGMKICSGGILGMGESVDDRAGLLIQLANLPEHPESVPINMLVKVKGTPLAEEKDVDPFDFIRTLAVARIMMPKSHVRLSAGREQMNEQMQALAFMAGANSIFYGEKLLTTKNPQAEKDMQLFARLGIKPEEREEHADEVHQAAIEQALVEQRESKLFYNAASA; not soluble

###

# Assay Details: soluble on expression in E. coli; label from the status in PepcDB or PDB records
Attribute Measured: soluble on expression in E. coli

1. MGHHHHHHSHMIALKMFYTEETYEQFFDYGLDYVIDASDTICYKIHLMKECLKRDIPLISSMGAANKTDPTRFQIADISKTHTDPIAKVVRTKLRKEGIKKGVQVIFSDESPIVIREDVRKEVGNDEAKIRKAKMPPSSNAFVPSVAGLIMGGHVVMDLLKDIEIKRVKDK; soluble
2. MSLSDVSRILKEARSQSRLTTLDYAEQIFDDFMELHGDRHFADDGAIVGGIGLLDGQAVTVIGVQKGKNLQDNLNRNFGQPNPEGYRKALRLMKQAEKFKRPVVTFINTAGAYPGIGAEERGQGEAIARNLLEMSDLKVPIIAIIIGEGGSGGALALAVADKVWMLEHTMYAVLSPEGFASILWKDGSRSIEAAELMKITAGELLKMEVVDKVIPEHGYFSSEIIQMLKTNLIEELKNLDQYPLNDLLEKRYQRFRKYEGHHHHHH; soluble

###

# Assay Details: soluble on expression in E. coli; label from the status in PepcDB or PDB records
Attribute Measured: soluble on expression in E. coli

1. DIMVVVDAGHGGKDPGAVGSRGEREKDVVLSIAQLLAKRLKREKGFDVRLVRNDDFFVPLRKRVEFAHKSNADMFISVHADAAPRLTASGASVFALSEGGATSATARFMAQRENGADLLGATSLLNLKDKDPMLAGVILDMSMNATIAASLQLGHTILGSLEGITTLHQKRVEQAGFAVLKSPDVPSILVETGFISNSRDSQRLVTARHQQAVADGLFDGLQRYFQRNPPMDSHLAWMQAQKQEQQA; not soluble
2. AATSRTERIWPGGVIPYVIGGNFTGSQRAMFKQAMRHWEKHTCVTFIERSDEESYIVFTYRPCGCCSYVGRRGNGPQAISIGKNCDKFGIVVHELGHVIGFWHEHTRPDRDNHVTIIRENIQPGQEYNFLKMEPGEVNSLGERYDFDSIMHYARNTFSRGMFLDTILPSRDDNGIRPAIGQRTRLSKGDIAQARKLYRCPA; soluble
3. NKMAMIDLAKLFLASKITAIEFSERICVERRRLYGVKDLSPNILNCGEELFMAAERFEPDADRANYEIDDNGLKVEVRSILEKFKLHHHHH; soluble
4. MAKVIRNRWVYRTDNKWTRYLPRRNDAVKEFDYDKNGASLKHYTEEISEEMRPKQASKLWMAWLYRDTSAEPKWTKKHVENLFGADFKVGRMEVFRNTELINTELWKIKHLIELRPVEFKNGVEPTEDDIFSTSLAPNGQCEVIQGGHVASENDLKLADGKQWTRKELGRDLNKKYHLYQSVYEQNVHTPNNITVVK; not soluble

###

# Assay Details: soluble on expression in E. coli; label from the status in PepcDB or PDB records
Attribute Measured: soluble on expression in E. coli

Examples from the recorded data:
1) MSLNKLCVAALSVNNFCDNREALYGVFDGDRNVEVPYLLQCTMSDILAEELQKTKNEEEYMVNTFIVMQRKLGTAGQKLGGAAVLCHIKHDPVDPGGSFTLTSANVGKCQTVLCRNGKPLPLSRSYIMSCEEELKRIKQHKAIITEDGKVNGVTESTRILGYTFLHPSVVPRPHVQSVLLTPQDEFFILGSKGLWDSLSVEEAVEAVRNVPDALAAAKKLCTLAQSYGCHDSISAVVVQLSVTEDEGHHHHHH; not soluble
2) MPFLPPLTPPTELYVGIQLPNPISILVNYLPVRQTPIETLRNLVYSCDINTLAIDEFMTWPSLLQPESTFRPYFELLVERGSLKVFAKRATS; not soluble
3) MGHHHHHHSHKELQRRRRSLALPGLQGCAELRQKLSLNFHSLCEQQPIGRRLFRDFLATVPTFRKAATFLEDVQNWELAEEGPTKDSALQGLVATCASAPAPGNPQPFLSQAVATKCQAATTEEERVAAVTLAKAEAMAFLQEQPFKDFVTSAFYDKFLQWKLFEMQPVSDKYFTEFRVLGKGGFGEVCAVQVKNTGKMYACKKLDK; soluble
4) MAVEVVMPKLGMAMKEGIITSWNIKAGDNVAKGELIASINSEKIETEIEAPADGTILDIAVSEDEGVPPGTVICYIGKPNEKVEVHESTKVEEELTASEVPQNVQHPEPLGKEVTNKQRIKISPVAKKIAKTENLDIRALLGTGPGGRITKVDVLKALEERVAIPEVLEESKVLPVTGMRKAIANRMHASLQNSAQLTLTMKVDVTDLVALHKEIAEVVQKRYDNKLTITDFVSRAVVLALGEHKEMNSAYIDDAIHQFEHVHLGMAVALEKGLVVPAIRFANNLSLVELSKEIKNAAQKARAGNLNSDDMQGTTFTISNLGSFGIEYFTPVLNTPETGILGVGAIEHVPVYKGKKLKKGSMLPLSLTFDHRVLDGAPAAAFLRTIKRYLEEPVTILL; not soluble

Need soluble on expression in E. coli of MSLKYNDNFQTILRHGVEKQVALLDADIFMENGQDDVELQMRQFRNLVNSKVDAIVVAMVNGKSAAEMMRLANEAKVPLVFVNRNPEPAKWPALTAFVGSDELESGTLQMEELARRAGYKGNVVILVGDPSNKSSVMRTEDVEKVVAKYPNMKVVQKKIGNWERSQAATIVIDWVKQGVDFSIVAANNDEMAIGAIMGLEKAGKNARDYLVGGIDGTPDGLKLMAEGKMAVSVFQDAVGQANGAVDAALSMARGETLASPVIWVPFKLITPENRQQFEEGHHHHHH , thanks.
soluble

Need soluble on expression in E. coli of MSKSYNQRQRKKLHLAEFQELGFLVNFQFAEGTAIETVDETVDRFINEVIQPNGLAYEGSGYLHWEGLVCLEKIGKCDESHRETVKKWLETNGLQQIEVSELFDIWW , thanks.
not soluble

Need soluble on expression in E. coli of MAHHHHHHMEEGDQATDAAETSALAANTLTREEQPDERSKNEVTLLEIKRKVQNEKEAQKDDNKQRKFKIINYTSKDSLVSKVEKEFFLFFCFLCGFNCLISETDVADLPRRKTDGSIIFPFKKIVHKKYYKTKKECILIRRREDALEVQFRILCKECGVPIGYVNSLADDNAYVYYYDYSFVRSQTKSRLFKDVSL , thanks.
not soluble
